The measured values listed here are drawn from paper PMC10821019.

As shown below, each of these molecules has a reported IC50 value.
Tested on: A2780 (ovarian carcinoma)
ASSAY PROTOCOL: SRB cytotoxicity assay, A2780
Format: cell-based, human
RUN CONDITIONS: SRB assay, 72 h treatment, mean n = 3, SD 5-10%
# value in µM; strip the unit string

{"MOLECULE": "C=C1C[C@@]23CC[C@H]4[C@@](C)(CCC[C@@]4(C)C(=O)OCC[n+]4ccccc4/C=C/c4c[nH]c5ccccc45)[C@@H]2CC[C@]1(O)C3.[Br-] [Compound 12]", "TARGET ENTITY": "A2780 (ovarian carcinoma)", "IC50 / µM": 25.7}
{"MOLECULE": "C=C1C[C@@]23CC[C@H]4[C@@](C)(CCC[C@@]4(C)C(=O)OCCCBr)[C@@H]2CC[C@]1(O)C3 [Compound 14]", "TARGET ENTITY": "A2780 (ovarian carcinoma)", "IC50 / µM": 27.7}

Now for the molecule whose IC50 we want.
Reported IC50 for CC12CCC3C(CCC4C(C)(C(=O)OCC[n+]5ccccc5C=Cc5c[nH]c6ccccc56)CCCC34C)(CC1=O)C2.[Br-] (stereo not drawn) [Compound 13] : what is it?
1.92
